Origin of measurements: patent US20210009693A1

Target: hPD-L1 (antigen of the Biacore assay) (human, UniProt Q9NZQ7 19-238, limits assumed)
Sequence (Q9NZQ7 19-238 limits assumed): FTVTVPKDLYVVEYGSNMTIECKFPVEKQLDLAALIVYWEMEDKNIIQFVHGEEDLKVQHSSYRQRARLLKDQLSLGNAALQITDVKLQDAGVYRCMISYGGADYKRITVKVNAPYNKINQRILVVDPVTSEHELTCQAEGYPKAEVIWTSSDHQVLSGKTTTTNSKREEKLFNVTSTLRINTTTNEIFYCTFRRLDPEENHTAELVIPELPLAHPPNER
Experiment: SPR (Biacore), antibody captured on anti-human Fc, antigen in flow
Reported pKd values for the following binders.
# pKd: negative log10 of molar concentration; output just the value

4B6-H3L3 (antibody, V domains shown, Humanized; also called humanized 4B6 H3L3) VH: QVQLVQSGAEVVKPGASVKISCKASGYVFTDYYMNWVKQAPGQGLEWIGDINPNNGGTSYNQKFQGRATVTVDKSTRTAYMELSRLRSDDTAVYYCVKWGDGPFAYWGQGTLVTVSS VL: DIQMTQSQSSLSASVGDRVTITCQASQNVGAAVAWYQQKPGKAPKLLIYSASNRYTGVPSRFSGSGSGTDFTLTISSMQPEDIATYFCQQYSNYPTFGSGTKLGIK ... 8.20

Attention now shifts to the item below.
What value of pKd has been reported for the following binder? 18G4-chimeric (antibody, V domains shown, Mouse variable regions fused to a human IgG1 constant region) VH: QVQLQQPGTALVKPGASVKLSCKASGYTFSSYYIHWVKQRPGQGLEWIGNINPFNGGSIYNEKFKNKASLTVDTSSNTAYMQLSSLTSEDSAVYYCARWHFDYWGQGTSLTVSS VL: DIVMTQSPSSLAVTAGEKVTLKCKSSQSLLWSGNQNNYLSWYQQKQGQPPKLLIYGASIRESWVPDRFTGSGSGTDFTLTIGNVSAEDLAVYYCQHNHGSFLPYTFGGGTRLEIK
7.95
